System: Ct Ycg1 24-1006;Ct Brn1 515-634 (Chaetomium thermophilum;Chaetomium thermophilum)
Assay: ITC
Details: 2 mM Mg2+, 25 C; EMSA: 10 mM HEPES-KOH pH 7.5, 125 mM NaCl, 5 mM MgCl2, 1 mM DTT, 30 min, gels at 4 C, 0.2 uM 35-bp or 10 nM 2.1-kb DNA; ITC: 25 mM Tris-HCl pH 7.5, 200 mM …
parameter: Kd (nM)
Write it as a number; the unit nM goes unstated.

Exercise: Query for Ct Ycg1 24-1006;Ct Brn1 515-634 (Chaetomium thermophilum;Chaetomium thermophilum): what Kd does the record show for CCTATAGTGAGTCACAATTCACTGG (double strand) [25-bp dsDNA] ?
Key: 1700

Data credit: paper PMC5651216
